Where do the numbers come from? From patent US11332472B2.

Parameter: IC50. Scope: all listed entries.
# subject of test: USP7 (Homo sapiens, UniProt Q93009, C315A)
# Construct: 0.25 nM His-His-USP7 (aa208-560, [C315A]) was incubated with compound; His-His (N)
# Sequence (Q93009 208-560 C315A): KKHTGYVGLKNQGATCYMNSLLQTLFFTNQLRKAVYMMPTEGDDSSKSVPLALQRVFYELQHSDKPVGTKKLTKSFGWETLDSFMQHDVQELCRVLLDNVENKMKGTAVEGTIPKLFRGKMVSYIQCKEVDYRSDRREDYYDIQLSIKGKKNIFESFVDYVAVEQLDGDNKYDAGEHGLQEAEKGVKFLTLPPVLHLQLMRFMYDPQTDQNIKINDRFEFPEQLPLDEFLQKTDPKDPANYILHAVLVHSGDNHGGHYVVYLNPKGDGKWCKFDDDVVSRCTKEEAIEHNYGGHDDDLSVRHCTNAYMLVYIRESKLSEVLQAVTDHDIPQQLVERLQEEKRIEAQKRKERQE
# test details: Inhibition of USP7 by Fluorescence Intensity (FLINT) readings, Ubiquitin-Rhodamine-110 substrate
# Format: biochemical
# run parameters: 0.25 nM His-His-USP7 (aa208-560, [C315A]); compound 60 minutes at 30° C.; 500 nM Ubiquitin-Rhodamine substrate; 11-point curves
State just the number; it will be interpreted in nM.

compound	unit info	IC50
O=C(CC1CCCO1)Nc1ccc2ncn(CC3(O)CCN(C(=O)[C@@H]4CCCC[C@H]4c4ccccc4)CC3)c(=O)c2n1 (relative stereo)	nM	100

Incoming: Entry O=C([C@@H]1CCCC[C@H]1c1ccccc1)N1CCC(O)(Cn2cnc3c(ncn3-c3ccccc3)c2=O)CC1 (relative stereo) , system USP7 (Homo sapiens, UniProt Q93009, C315A): what IC50 was measured?
Outgoing: 29.3

Incoming: Entry O=C([C@@H]1CCCC[C@H]1c1ccccc1)N1CCC(O)(Cn2cnc3c(ccn3-c3ccc(Cl)cc3)c2=O)CC1 (relative stereo) , system USP7 (Homo sapiens, UniProt Q93009, C315A): what IC50 was measured?
Outgoing: 31.6

Incoming: Entry O=C([C@@H]1CC(F)(F)CC[C@H]1c1ccccc1)N1CCC(O)(Cn2cnc3c(ccn3-c3ccccc3)c2=O)CC1 (single isomer, unassigned) [Example 31] , system USP7 (Homo sapiens, UniProt Q93009, C315A): what IC50 was measured?
Outgoing: 2760

Incoming: Entry COc1ccc(-n2ccc3c(=O)n(CC4(O)CCN(C(=O)[C@@H]5CCC(=O)N(C)[C@H]5c5ccccc5)CC4)cnc32)cc1 (single isomer, unassigned) , system USP7 (Homo sapiens, UniProt Q93009, C315A): what IC50 was measured?
Outgoing: 4640

Incoming: Entry O=C([C@@H]1CCCC[C@H]1c1ccccc1)N1CCC(O)(Cn2cnc3c(ccn3Cc3cccnc3)c2=O)CC1 (relative stereo) , system USP7 (Homo sapiens, UniProt Q93009, C315A): what IC50 was measured?
Outgoing: 1010

Incoming: Entry COc1ccc(-n2ccc3c(=O)n(CC4(O)CCN(C(=O)[C@@H]5CCCC[C@H]5n5ccnc5)CC4)cnc32)cc1 (single isomer, unassigned) , system USP7 (Homo sapiens, UniProt Q93009, C315A): what IC50 was measured?
Outgoing: 413

Incoming: Entry COc1ccc(-n2ccc3c(=O)n(CC4(O)CCN(C(=O)[C@@H]5CCCC[C@H]5c5ccc(F)cc5)CC4)cnc32)cc1 (single isomer, unassigned) [Example 41] , system USP7 (Homo sapiens, UniProt Q93009, C315A): what IC50 was measured?
Outgoing: 13

Incoming: Entry O=C([C@@H]1CCCC[C@H]1c1ccccc1)N1CCC(O)(Cn2cnc3[nH]ccc3c2=O)CC1 (relative stereo) , system USP7 (Homo sapiens, UniProt Q93009, C315A): what IC50 was measured?
Outgoing: 124

Incoming: Entry COc1ccc(-n2ccc3c(=O)n(CC4(O)CCN(C(=O)[C@@H]5CC(F)(F)CC[C@H]5c5ccccc5)CC4)cnc32)cc1 (single isomer, unassigned) [Example 30] , system USP7 (Homo sapiens, UniProt Q93009, C315A): what IC50 was measured?
Outgoing: 15.9

Incoming: Entry O=C([C@@H]1CCCC[C@H]1c1ccccc1)N1CCC(O)(Cn2cnc3c(cnn3-c3ccccc3)c2=O)CC1 (relative stereo) , system USP7 (Homo sapiens, UniProt Q93009, C315A): what IC50 was measured?
Outgoing: 14.3

Incoming: Entry O=C([C@@H]1CCCC[C@H]1c1ccccc1)N1CCC(O)(Cn2cnc3c(nnn3-c3ccccc3)c2=O)CC1 (relative stereo) , system USP7 (Homo sapiens, UniProt Q93009, C315A): what IC50 was measured?
Outgoing: 50.6
